// provenance: patent US20250074913A1

tested on: interferon regulatory factor (IRF) pathway in THP1-Dual™ cells; test: THP1-Dual reporter gene assay (Agonist_THP1_EC50); assay type: cell-based; conditions: Homo sapiens, 20-24 hrs compound treatment, Lucia luciferase (IRF) readout
Response field label takes rule met when EC50 is strictly below 100 nM and rule not met in all other cases.

Molecule: CCCn1nc(C)c(O)c1-c1nc(-n2nc(C(N)=O)c3cc(C)ncc32)co1
Target desc: interferon regulatory factor (IRF) pathway in THP1-Dual™ cells
Classification: rule met

Molecule: Cc1nn(CCn2cncn2)c(-c2n[nH]c(-c3nc(C(N)=O)cc4c3cnn4C)n2)c1O
Target desc: interferon regulatory factor (IRF) pathway in THP1-Dual™ cells
Classification: rule not met

Molecule: Cc1nn(CCCC#N)c(-c2n[nH]c(-c3nc(C(N)=O)cc4c3cnn4C)n2)c1O
Target desc: interferon regulatory factor (IRF) pathway in THP1-Dual™ cells
Classification: rule not met

Molecule: Cc1cc2c(C(N)=O)nn(-c3nc(-c4c(O)c(C)nn4CC=C(F)F)n[nH]3)c2cn1
Target desc: interferon regulatory factor (IRF) pathway in THP1-Dual™ cells
Classification: rule met

Molecule: COc1cccc(CCn2nc(C)c(O)c2-c2nc(-n3nc(C(N)=O)c4cc(C)ncc43)co2)c1
Target desc: interferon regulatory factor (IRF) pathway in THP1-Dual™ cells
Classification: rule met

Molecule: COCCCn1nc(C)c(O)c1-c1n[nH]c(-n2nc(C(N)=O)c3cc(C)ncc32)n1
Target desc: interferon regulatory factor (IRF) pathway in THP1-Dual™ cells
Classification: rule met
